- target or test system: Human CDK12 wt/CycK (Homo sapiens (Human), UniProt Q9NYV4)
- Sequence (Q9NYV4 whole entry): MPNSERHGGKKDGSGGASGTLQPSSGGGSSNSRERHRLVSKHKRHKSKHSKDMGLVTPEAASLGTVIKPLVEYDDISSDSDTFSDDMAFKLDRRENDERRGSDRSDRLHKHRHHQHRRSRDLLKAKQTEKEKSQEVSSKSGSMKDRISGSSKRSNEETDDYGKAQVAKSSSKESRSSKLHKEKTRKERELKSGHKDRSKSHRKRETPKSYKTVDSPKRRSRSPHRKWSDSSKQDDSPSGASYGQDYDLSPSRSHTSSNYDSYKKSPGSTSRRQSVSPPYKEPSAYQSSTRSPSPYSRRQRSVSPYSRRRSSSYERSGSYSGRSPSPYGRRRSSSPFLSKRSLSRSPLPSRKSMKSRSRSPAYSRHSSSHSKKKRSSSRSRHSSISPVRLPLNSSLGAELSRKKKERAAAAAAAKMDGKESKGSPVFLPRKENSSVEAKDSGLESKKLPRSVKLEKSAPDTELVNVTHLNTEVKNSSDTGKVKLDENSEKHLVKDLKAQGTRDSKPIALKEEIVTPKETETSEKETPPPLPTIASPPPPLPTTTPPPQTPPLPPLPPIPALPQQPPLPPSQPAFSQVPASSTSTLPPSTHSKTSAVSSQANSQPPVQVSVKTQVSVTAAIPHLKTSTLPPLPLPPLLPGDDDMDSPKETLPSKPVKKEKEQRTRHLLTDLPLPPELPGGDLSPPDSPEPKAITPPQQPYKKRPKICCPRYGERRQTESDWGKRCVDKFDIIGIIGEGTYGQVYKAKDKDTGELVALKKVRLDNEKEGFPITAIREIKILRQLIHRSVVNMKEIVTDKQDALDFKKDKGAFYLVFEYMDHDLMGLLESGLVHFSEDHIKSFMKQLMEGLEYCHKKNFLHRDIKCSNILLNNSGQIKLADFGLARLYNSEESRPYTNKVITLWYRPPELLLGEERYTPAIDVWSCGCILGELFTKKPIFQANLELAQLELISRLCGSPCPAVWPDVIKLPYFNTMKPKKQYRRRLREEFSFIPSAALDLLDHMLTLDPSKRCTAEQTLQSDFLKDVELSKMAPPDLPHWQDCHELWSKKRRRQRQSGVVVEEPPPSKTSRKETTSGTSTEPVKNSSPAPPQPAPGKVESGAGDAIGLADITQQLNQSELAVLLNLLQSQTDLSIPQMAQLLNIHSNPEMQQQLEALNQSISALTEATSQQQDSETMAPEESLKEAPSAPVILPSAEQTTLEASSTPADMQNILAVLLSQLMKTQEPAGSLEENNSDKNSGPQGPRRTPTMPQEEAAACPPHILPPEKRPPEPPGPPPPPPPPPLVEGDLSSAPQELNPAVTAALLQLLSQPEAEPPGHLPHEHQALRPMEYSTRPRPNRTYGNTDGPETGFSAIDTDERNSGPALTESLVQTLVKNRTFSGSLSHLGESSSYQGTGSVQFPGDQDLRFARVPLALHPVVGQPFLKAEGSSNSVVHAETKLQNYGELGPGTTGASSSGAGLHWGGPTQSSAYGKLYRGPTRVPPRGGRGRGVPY
- Sequence (O75909 whole entry partner): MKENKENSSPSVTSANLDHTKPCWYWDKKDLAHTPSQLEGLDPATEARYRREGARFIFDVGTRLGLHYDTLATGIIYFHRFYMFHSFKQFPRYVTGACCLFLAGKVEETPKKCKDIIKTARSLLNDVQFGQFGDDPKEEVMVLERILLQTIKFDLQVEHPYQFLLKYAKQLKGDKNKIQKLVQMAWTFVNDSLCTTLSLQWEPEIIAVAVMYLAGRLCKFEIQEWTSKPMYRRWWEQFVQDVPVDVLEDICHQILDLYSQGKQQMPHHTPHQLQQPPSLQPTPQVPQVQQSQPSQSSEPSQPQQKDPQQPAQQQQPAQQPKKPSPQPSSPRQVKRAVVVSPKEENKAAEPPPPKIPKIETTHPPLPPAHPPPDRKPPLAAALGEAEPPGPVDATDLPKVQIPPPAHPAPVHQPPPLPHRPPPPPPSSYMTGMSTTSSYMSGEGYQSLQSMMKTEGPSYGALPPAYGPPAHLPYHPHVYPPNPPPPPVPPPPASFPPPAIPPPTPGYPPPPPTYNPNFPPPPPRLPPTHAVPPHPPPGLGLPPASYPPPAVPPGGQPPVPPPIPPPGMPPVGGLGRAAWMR
- measurement notes: Radiometric protein kinase assay (33PanQinase Activity Assay), CDK12
- Type: biochemical
- experimental setup: read-out: CKD12 Biochemical Potency IC50
observable: IC50 (µM)

P. O[C@H]1CNCC[C@@H]1CNc1cc(NCc2ccc(-c3nccs3)cc2)n2ncc(C3CC3)c2n1
Q. c1ccc(-c2ccc(CNc3cc(N4CC5(CCNCC5)C4)nc4c(C5CC5)cnn34)cc2)nc1
Q) For the pair P and Q , which entry has the numerically smaller recorded IC50? API: response body contains the label of the selected item.
A) P
(P: 0.039 µM, Q: 2.02 µM)

A. c1ccc(-c2ccc(CNc3cc(OCC4CNC4)nc4c(C5CC5)cnn34)cc2)nc1
B. c1ccc(-c2ccc(CNc3cc(NC4CCNCC4)nc4c(C5CC5)cnn34)cc2)nc1
C. c1ccc(-c2ccc(CNc3cc(N[C@@H]4CCNC4)nc4c(C5CC5)cnn34)cc2)nc1
Q) Kindly order the items shown according to IC50, from the highest value down. Give me the labels in the order the question wants.
A) C, A, B
(C: 0.254 µM, A: 0.134 µM, B: 0.082 µM)

P. O[C@H]1CNCC[C@@H]1CNc1cc(NCc2cc(F)c(-c3ccccn3)cn2)n2ncc(C3CC3)c2n1
Q. Cc1cccnc1-c1ccc(CNc2cc(NC[C@H]3CCNC[C@@H]3O)nc3c(C(C)C)cnn23)cc1
Q) Which record would sort first by descending IC50, P or Q ? API: response body contains the label of the selected item.
A) Q

src = patent US20240383900A1
